# System: U87 glioblastoma cells
# experiment: MTT cell viability assay, U87 cells, 48 h
# Format: cell-based, human
# test parameters: 48 h of incubation, U87
reported property: relative cytotoxicity

# input compound: CC(C)(C)c1cc(CCCNC(=O)[C@@]2(C)CC[C@]3(C)CC[C@]4(C)[C@H](C(=O)C=C5[C@@]6(C)C=C(C#N)C(=O)C(C)(C)C6CC[C@]54C)[C@@H]3C2)cc(C(C)(C)C)c1O (stereo partly drawn) ; wanted: its relative cytotoxicity
high

# input compound: CC1(C)C(=O)C(C#N)=C[C@]2(C)C3=CC(=O)[C@@H]4[C@@H]5C[C@@](C)(C(=O)Nc6ccc(Br)cc6)CC[C@]5(C)CC[C@@]4(C)[C@]3(C)CCC12 (stereo partly drawn) ; wanted: its relative cytotoxicity
high

* * *

# System: U87 glioblastoma cells
# experiment: MTT cell viability assay, U87 cells, 48 h
# Type: cell-based, human
# test parameters: 48 h of incubation, U87
reported property: relative cytotoxicity

Solved entries (count: 4):
Form: Entry = CN(C)CCNC(=O)[C@@]1(C)CC[C@]2(C)CC[C@]3(C)[C@H](C(=O)C=C4[C@@]5(C)C=C(C#N)C(=O)C(C)(C)C5CC[C@]43C)[C@@H]2C1 (some centres unmarked) [compound 3] | System = U87 glioblastoma cells | relative cytotoxicity = ____
low

Form: Entry = CC1(C)C(=O)C(C#N)=C[C@]2(C)C3=CC(=O)[C@@H]4[C@@H]5C[C@@](C)(C(=O)NCCc6c[nH]c7ccccc67)CC[C@]5(C)CC[C@@]4(C)[C@]3(C)CCC12 (some centres unmarked) [compound 9] | System = U87 glioblastoma cells | relative cytotoxicity = ____
moderate

Form: Entry = Cc1ccc(NC(=O)[C@@]2(C)CC[C@]3(C)CC[C@]4(C)[C@H](C(=O)C=C5[C@@]6(C)C=C(C#N)C(=O)C(C)(C)C6CC[C@]54C)[C@@H]3C2)cc1 (some centres unmarked) [compound 7] | System = U87 glioblastoma cells | relative cytotoxicity = ____
high

Form: Entry = CC1(C)C(=O)C(C#N)=C[C@]2(C)C3=CC(=O)[C@@H]4[C@@H]5C[C@@](C)(C(=O)NCCCCCO)CC[C@]5(C)CC[C@@]4(C)[C@]3(C)CCC12 (some centres unmarked) [compound 2] | System = U87 glioblastoma cells | relative cytotoxicity = ____
moderate

***
Form: Entry = CN(C)CCCNC(=O)[C@@]1(C)CC[C@]2(C)CC[C@]3(C)[C@H](C(=O)C=C4[C@@]5(C)C=C(C#N)C(=O)C(C)(C)C5CC[C@]43C)[C@@H]2C1 (some centres unmarked) [compound 4] | System = U87 glioblastoma cells | relative cytotoxicity = ____
low

meta.source: paper PMC11317440
